Hello, the source for this data is patent US20030216569A1, in case you need it.

Target: HIV-1 protease (Human immunodeficiency virus type 1 group M subtype B, UniProt P04585)
Experiment: Fluorescence HIV-1 Protease Inhibitor Assay (Pandex)
Type: biochemical
Set-up: made in house; host or cells: E. coli K12 L507/pHP10D (NRRL B-18560)
Settings: Table 2; read-out: IC50 (Pandex)
Parameter: pIC50
The meaning of pIC50 here: minus log10 of the concentration in molar units.

Exercise: What value of pIC50 has been reported for the following molecule? Cc1c(O)cccc1C(=O)N[C@@H](CSc1ccccc1)[C@H](O)CN1C[C@H]2CCS[C@H]2C[C@H]1C(=O)NC(C)(C)C (relative stereo) [Example 74 I]
Solution: 9.52

====

Molecular target: HIV-1 protease (Human immunodeficiency virus type 1 group M subtype B)
Assay: Fluorescence HIV-1 Protease Inhibitor Assay (Pandex)
Format: biochemical
Parameters: made in house; host or cells: E. coli K12 L507/pHP10D (NRRL B-18560)
Details: value as run; 35B value of the same run in footnote or parentheses
Parameter: Pandex IC50 ng/ml

Exercise: Could you share what Pandex IC50 ng/ml was measured for CC(C)(C)NC(=O)C1CC2CCCCC2CN1CC(O)C(Cc1ccccc1)NC(=O)c1c(Cl)ccc(O)c1Cl (stereo not shown) [Example 17] , tested on HIV-1 protease (Human immunodeficiency virus type 1 group M subtype B)?
Solution: 346^b ng/ml

Exercise: And for Cc1cnccc1C(=O)NC(CSc1ccccc1)C(O)CN1CCN(Cc2cccnc2)CC1C(=O)NC(C)(C)C (stereo not shown) [Example 35] ?
Solution: 73^c ng/ml

Exercise: And for CC(C)(C)NC(=O)C1CC2CCCCC2CN1CC(O)C(Cc1ccccc1)NC(=O)c1cccc(Cl)c1Cl (stereo not shown) [Example 14] ?
Solution: 48.7^d ng/ml

Exercise: And for Cc1c(C(=O)N[C@@H](Cc2ccccc2)[C@H](O)CN2C[C@H]3CCCC[C@H]3C[C@H]2C(=O)NC(C)(C)C)cc[nH]c1=O (relative stereo) [Example 16] ?
Solution: 125^e ng/ml

====

Biological target: HIV-1 protease (Human immunodeficiency virus type 1 group M subtype B)
Assay: Fluorescence HIV-1 Protease Inhibitor Assay (Pandex)
Format: biochemical
Design: made in house; host or cells: E. coli K12 L507/pHP10D (NRRL B-18560)
Conditions: normalized to positive control (=1.0); * = a calculated average; read-out: Fluorescence Assay IC50 in ng/mL (converted)
Parameter: log10 of IC50 (log10 of the value in nM)
Friendly reminder: values = log10 of IC50, unit nM.

Exercise: Could you share what log10 of IC50 was measured for Cc1ccc(O)c(C)c1C(=O)NC(CSc1ccccc1)C(O)CN1CC2CCCCC2CC1C(=O)NC(C)(C)C (stereo not shown) , tested on HIV-1 protease (Human immunodeficiency virus type 1 group M subtype B)?
Solution: 0.96

Exercise: And for CC(C)(C)NC(=O)c1ccccc1CC(O)C(CSc1ccc2ccccc2c1)NC(=O)c1cccc(N)c1Br (stereo not shown) ?
Solution: 2.33

Exercise: And for Cc1ccccc1C(=O)NC(CSc1ccccc1)C(O)CN1CC2CCCCC2CC1C(=O)NC(C)(C)C (stereo not shown) ?
Solution: 0.49

Exercise: And for CC(C)(C)NC(=O)C1CC2CCCCC2CN1CC(O)C(Cc1ccccc1)NC(=O)c1cccc(O)c1F (stereo not shown) ?
Solution: 3.25

Exercise: And for Cc1c(C(=O)NC(CSc2ccc3ccccc3c2)C(O)Cc2ccccc2C(=O)NC(C)(C)C)ccc(O)c1O (stereo not shown) ?
Solution: 2.26

Exercise: And for Cc1c(N)cccc1C(=O)NC(CSc1ccc2ccccc2c1)C(O)Cc1ccccc1C(=O)NC(C)(C)C (stereo not shown) ?
Solution: 2.28

Exercise: And for CC(C)(C)NC(=O)c1ccccc1C[C@@H](O)[C@H](CSc1ccc2ccccc2c1)NC(=O)c1cccc2ncccc12 (relative stereo) ?
Solution: 2.64

Exercise: And for CC(C)(C)NC(=O)c1ccccc1CC(O)C(CSc1ccc2ccccc2c1)NC(=O)c1cccc(Cl)c1Cl (stereo not shown) ?
Solution: 2.11

Exercise: And for Cc1c(F)cccc1C(=O)NC(Cc1ccccc1)C(O)CN1CC2CCCCC2CC1C(=O)NC(C)(C)C (stereo not shown) ?
Solution: 2.68

Exercise: And for Cc1cnccc1C(=O)NC(CSc1ccccc1)C(O)CN1CC2CCCCC2CC1C(=O)NC(C)(C)C (stereo not shown) ?
Solution: 0.88

Exercise: And for Cc1c(O)cccc1C(=O)NC(CSc1ccc2ccccc2c1)C(O)CN1CC2CCCCC2CC1C(=O)NC(C)(C)C (stereo not shown) ?
Solution: 0.97

Exercise: And for Cc1c(O)cccc1C(=O)N[C@@H](CSc1ccc2ccccc2c1)[C@H](O)CN1CCCC[C@H]1C(=O)NC(C)(C)C ?
Solution: 0.75

Exercise: And for CC(C)(C)NC(=O)C1CC2CCCCC2CN1CC(O)C(Cc1ccccc1)NC(=O)c1ccccc1C(F)(F)F (stereo not shown) ?
Solution: 2.82

Exercise: And for CC(C)(C)NC(=O)C1CC2CCCCC2CN1CC(O)C(Cc1ccccc1)NC(=O)c1cccc(O)c1Cl (stereo not shown) ?
Solution: 0.96

Exercise: And for CC(C)(C)NC(=O)c1ccccc1C[C@@H](O)[C@H](Cc1ccccc1)NC(=O)c1cccc2c1CCNC2 ?
Solution: 2.90

Exercise: And for CC(C)(C)NC(=O)c1ccccc1C[C@@H](O)[C@H](CSc1ccc2ccccc2c1)NC(=O)c1cccc2c1CCCN2 (relative stereo) ?
Solution: 2.29

Exercise: And for CC(C)c1c(O)cccc1C(=O)NC(Cc1ccccc1)C(O)CN1CC2CCCCC2CC1C(=O)NC(C)(C)C (stereo not shown) ?
Solution: 1.06

Exercise: And for CC(C)(C)NC(=O)c1c(CC(O)C(CSc2ccc3ccccc3c2)NC(=O)c2cccc(N)c2Cl)ccc2ccccc12 (stereo not shown) ?
Solution: 2.14

Exercise: And for CCCCc1c(O)cccc1C(=O)NC(Cc1ccccc1)C(O)CN1CC2CCCCC2CC1C(=O)NC(C)(C)C (stereo not shown) ?
Solution: 1.21

Exercise: And for Cc1c(N)cc(N)cc1C(=O)NC(Cc1ccccc1)C(O)CN1CC2CCCCC2CC1C(=O)NC(C)(C)C (stereo not shown) ?
Solution: 1.49

Exercise: And for CCCc1c(O)cccc1C(=O)NC(Cc1ccccc1)C(O)CN1CC2CCCCC2CC1C(=O)NC(C)(C)C (stereo not shown) ?
Solution: 0.11

Exercise: And for CC(C)(C)NC(=O)C1CC2CCCCC2CN1CC(O)C(CSc1ccccc1)NC(=O)c1cccc2ncccc12 (stereo not shown) ?
Solution: 0.31

Exercise: And for CC(C)(C)NC(=O)C1CC2CCCCC2CN1CC(O)C(Cc1ccccc1)NC(=O)c1ccc[n+]([O-])c1 (stereo not shown) ?
Solution: 3.70

Exercise: And for CC(C)(C)NC(=O)C1CC2CCCCC2CN1CC(O)C(CSc1ccccc1)NC(=O)c1cccc2c1CCCN2 (stereo not shown) ?
Solution: -0.06

Exercise: And for CN1CCc2c(cccc2C(=O)N[C@@H](CSc2ccc3ccccc3c2)[C@H](O)Cc2ccccc2C(=O)NC(C)(C)C)C1 (relative stereo) ?
Solution: 2.77

Exercise: And for CC(C)(C)NC(=O)[C@@H]1CN(Cc2cccnc2)CCN1C[C@@H](O)[C@H](CSc1ccccc1)NC(=O)c1cccc2c1CCCN2 ?
Solution: 0.43

Exercise: And for CC(C)(C)NC(=O)c1ccccc1C[C@@H](O)[C@H](CSc1ccc2ccccc2c1)NC(=O)c1cccc2c1CCNC2 (relative stereo) ?
Solution: 2.49

Exercise: And for Cc1c(C(=O)NC(CSc2ccc3ccccc3c2)C(O)Cc2ccccc2C(=O)NC(C)(C)C)cccc1[N+](=O)[O-] (stereo not shown) ?
Solution: 2.97
